molecular target: helical B-DNA; assay: DNA binding/denaturation/precipitation from solution; conditions: Expt. 1 (first or only value in cell); read-out: DNA Bind/ppt. IC50, Expt. 1

ENTRY_SMILES: CCNCCCCNCCCCNCC=C(CS)CNCCCCNCCCCNCC
UNITS_OF_MEASURE: µM
IC50: 37
//
ENTRY_SMILES: CCNCCCCNCCCCNCCCCNCCCCNCC=C(CNCCCCNCCCCNCCCCNCCCCNCC)CN(C)C
UNITS_OF_MEASURE: µM
IC50: 49
//
ENTRY_SMILES: CCNCCCCNCCCCNCCCCNCCCCNCC=C(CNC)CNCCCCNCCCCNCCCCNCCCCNCC
UNITS_OF_MEASURE: µM
IC50: 57
//
ENTRY_SMILES: CCNCCCCNCCCCNCCCCNCCCCNCC=C(CS)CNCCCCNCCCCNCCCCNCCCCNCC
UNITS_OF_MEASURE: µM
IC50: 58
//
ENTRY_SMILES: CCNCCCCNCC=C(CS)CNCCCCNCC
UNITS_OF_MEASURE: µM
IC50: 94
//
ENTRY_SMILES: CCNCCCCNCCCCNCCCCNCC=C(CS)CNCCCCNCCCCNCCCCNCC
UNITS_OF_MEASURE: µM
IC50: 82

The values you see were collected from patent US20050027016A1.
